tested.target: FKBP12 (Homo sapiens, UniProt P62942)
Sequence (P62942 whole entry): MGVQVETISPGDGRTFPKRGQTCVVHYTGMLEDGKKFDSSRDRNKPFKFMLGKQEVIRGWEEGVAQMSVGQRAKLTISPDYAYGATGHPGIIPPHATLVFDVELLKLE
metric.name: Ki (µM)
Record the value in µM, omitting the unit from your answer.

# compound, Ki [µM]
data = [
    ("O=C1NCC2CCCC1N2S(=O)(=O)c1ccc2[nH]c(=O)sc2c1 (centres unmarked)", 0.1),
]

// query Return the recorded Ki value; entry: CCOC(=O)C1CCCCN1S(=O)(=O)c1ccc2[nH]c(=O)sc2c1 (centres unmarked) [Compound 3d, reference compound]
// result 0.2

// query Return the recorded Ki value; entry: COc1ccc(OCCN2CC3CCCC(C2=O)N3S(=O)(=O)c2cc(Cl)cc(Cl)c2)cc1OC (centres unmarked)
// result 0.14

// query Return the recorded Ki value; entry: CCN1CC2CCCC(C1=O)N2C(=O)C(=O)c1cc(OC)c(OC)c(OC)c1 (centres unmarked) [Compound 4g, reference compound]
// result 6.3

// query Return the recorded Ki value; entry: COc1ccc(OCCN2CC3CCCC(C2=O)N3S(=O)(=O)c2ccc3ncsc3c2)cc1OC (centres unmarked)
// result 0.9

// query Return the recorded Ki value; entry: COc1ccc(OCCN2CCC3CCCC(C2=O)N3S(=O)(=O)c2cc(Cl)cc(Cl)c2)cc1OC (centres unmarked)
// result 0.01

// query Return the recorded Ki value; entry: O=C1NCCC2CCCC1N2S(=O)(=O)c1ccc2[nH]c(=O)sc2c1 (centres unmarked)
// result 0.06

// query Return the recorded Ki value; entry: COc1ccc(OCCN2CCC3CCCC(C2=O)N3S(=O)(=O)c2ccc3ncsc3c2)cc1OC (centres unmarked)
// result 0.03
